# System: Influenza virus A/NIB/44/90M H3N2
# procedureText: Fetuin binding inhibition (FBI) test, inhibition of viral cell adhesion
# assaySetup: fetuin binding assay; inhibitor virus complex
testReadout: Kd (µM)
Report the figure in µM without appending any unit label.

Entry CC(=O)N[C@H]1[C@H]([C@H](O)[C@H](O)CO)O[C@@](OCc2ccccc2)(C(=O)O)C[C@@H]1O [Neu5Acα-OBn, reference compound] : Kd on Influenza virus A/NIB/44/90M H3N2 = 100

----------
pKd by entry:
# Tested on: Influenza virus A/NIB/44/90M H3N2
# procedureText: Fetuin binding inhibition (FBI) test, inhibition of viral cell adhesion
# assaySetup: fetuin binding assay; inhibitor virus complex
The value called pKd is obtained by taking minus log10 of the concentration in mol/L.

1. {[Neu5Acα-OCH2(p-C6H4)NHCOCH2NH—CO(CH2)4CO—(NHCH2CO)7—NHCH2—]4C} [Compound 48]
7.00

Entry [Neu5Acα-OCH2(p-C6H4)NHCOCH2NH—CO(CH2)4CO—(NH(CH2)5CO)3—(NHCH2CO)5—NHCH2—]4C [Compound 44] : pKd on Influenza virus A/NIB/44/90M H3N2 = 7.40
